Reference source: ChEMBL document CHEMBL1146813

Please go through the items and note down their MIC.
- Test system: Streptococcus pneumoniae
- testMethodNotes: In vitro antibacterial activity against Streptococcus pneumoniae 5649 (efflux-resistant strain bearing a mef (E) gene)
- Format: functional
Give bare numbers, in µg/mL.

Some compounds with recorded MIC:
compound	systemName	observable	measuredResult
CC[C@H]1OC(=O)[C@H](C)C(=O)[C@H](C)[C@@H](O[C@@H]2O[C@H](C)C[C@H](N(C)C)[C@H]2O)[C@@](C)(OC)C[C@@H](C)C(=O)[C@H](C)[C@@H](O)[C@]1(C)O	Streptococcus pneumoniae	MIC	0.12
CC[C@H]1OC(=O)[C@H](C)[C@@H](O[C@H]2C[C@@](C)(OC)[C@@H](O)[C@H](C)O2)[C@H](C)[C@@H](O[C@@H]2O[C@H](C)C[C@H](N(C)C)[C@H]2O)[C@](C)(O)C[C@@H](C)C(=O)[C@H](C)[C@@H](O)[C@]1(C)O	Streptococcus pneumoniae	MIC	4
CC[C@H]1OC(=O)[C@H](C)C(=O)[C@H](C)[C@@H](O[C@@H]2O[C@H](C)C[C@H](N(C)C)[C@H]2O)[C@@](C)(OC)C[C@@H](C)/C(=N\OCCNCCCOCCCNCc2ccccc2)[C@H](C)[C@@H](O)[C@]1(C)O	Streptococcus pneumoniae	MIC	0.25
CC[C@H]1OC(=O)[C@H](C)C(=O)[C@H](C)[C@@H](O[C@@H]2O[C@H](C)C[C@H](N(C)C)[C@H]2O)[C@@](C)(OC)C[C@@H](C)/C(=N\OCCNCCCOCCOCCOCCCNc2ccc(Oc3ccccc3)cc2)[C@H](C)[C@@H](O)[C@]1(C)O	Streptococcus pneumoniae	MIC	1
CC[C@H]1OC(=O)[C@H](C)C(=O)[C@H](C)[C@@H](O[C@@H]2O[C@H](C)C[C@H](N(C)C)[C@H]2O)[C@@](C)(OC)C[C@@H](C)/C(=N\OCCNCCCOCCCNCc2cnc3ccccc3c2)[C@H](C)[C@@H](O)[C@]1(C)O	Streptococcus pneumoniae	MIC	0.5

Look at each compound and report its MIC.
1. CC[C@H]1OC(=O)[C@H](C)C(=O)[C@H](C)[C@@H](O[C@@H]2O[C@H](C)C[C@H](N(C)C)[C@H]2O)[C@@](C)(OC)C[C@@H](C)/C(=N\OCCNCCCCCCNCc2ccc(OC)cc2)[C@H](C)[C@@H](O)[C@]1(C)O
2. CC[C@H]1OC(=O)[C@H](C)[C@@H](OC(=O)NCCCOCCCNC(=O)Cc2ccc(OC)cc2)[C@H](C)[C@@H](O[C@@H]2O[C@H](C)C[C@H](N(C)C)[C@H]2O)[C@@](C)(OC)C[C@@H](C)C(=O)[C@H](C)[C@H]2NC(=O)O[C@@]21C
3. CC[C@H]1OC(=O)[C@H](C)C(=O)[C@H](C)[C@@H](O[C@@H]2O[C@H](C)C[C@H](N(C)C)[C@H]2O)[C@@](C)(OC)C[C@@H](C)/C(=N\OCCNCCCOCCCNCc2ccc(Cl)c(Cl)c2)[C@H](C)[C@@H](O)[C@]1(C)O
4. CC[C@H]1OC(=O)[C@H](C)C(=O)[C@H](C)[C@@H](O[C@@H]2O[C@H](C)C[C@H](N(C)C)[C@H]2O)[C@@](C)(OC)C[C@@H](C)/C(=N\OCCNCCCOCCOCCCNc2ccc(Oc3ccccc3)cc2)[C@H](C)[C@@H](O)[C@]1(C)O

Result:
1. 0.12
2. 0.5
3. 0.5
4. 1

Please report MIC for every entry that follows.
1. CC[C@H]1OC(=O)[C@H](C)C(=O)[C@H](C)[C@@H](O[C@@H]2O[C@H](C)C[C@H](N(C)C)[C@H]2O)[C@@](C)(OC)C[C@@H](C)/C(=N\OCCNCC2CCC(CNCc3ccc(Oc4ccccc4)cc3)CC2)[C@H](C)[C@@H](O)[C@]1(C)O (some centres not stated)
2. CC[C@H]1OC(=O)[C@H](C)C(=O)[C@H](C)[C@@H](O[C@@H]2O[C@H](C)C[C@H](N(C)C)[C@H]2O)[C@@](C)(OC)C[C@@H](C)/C(=N\OCCNCCCOCCCNCc2cc(Cl)cc(Cl)c2)[C@H](C)[C@@H](O)[C@]1(C)O

Result:
1. 0.12
2. 0.015
